# ASSAYED SYSTEM: somatostatin receptors on AR42J cells (rat)
# Sequence (P30680 whole entry): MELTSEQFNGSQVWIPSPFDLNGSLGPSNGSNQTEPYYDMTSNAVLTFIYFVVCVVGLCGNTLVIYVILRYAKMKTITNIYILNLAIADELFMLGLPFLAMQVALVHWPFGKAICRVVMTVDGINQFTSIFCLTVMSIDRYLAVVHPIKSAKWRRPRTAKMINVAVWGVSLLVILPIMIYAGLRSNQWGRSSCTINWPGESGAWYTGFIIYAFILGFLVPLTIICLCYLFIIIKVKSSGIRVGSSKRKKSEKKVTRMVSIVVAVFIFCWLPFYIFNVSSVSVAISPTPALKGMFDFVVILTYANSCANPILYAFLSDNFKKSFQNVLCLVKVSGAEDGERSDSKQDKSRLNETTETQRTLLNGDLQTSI
# METHOD SUMMARY: apparent IC50, competition with 111In(DTPA-octreotide) on AR42J cells, 3 h at RT
pIC50: −log10 of the molar value.
pIC50 for assorted substances

{"SUBSTANCE": "^69Ga(IMP466), IMP466 = NOTA-D-Phe-Cys-Phe-D-Trp-Lys-Thr-Cys-Throl (peptide)", "pIC50": 7.89}
{"SUBSTANCE": "Al^19F(IMP466), IMP466 = NOTA-D-Phe-Cys-Phe-D-Trp-Lys-Thr-Cys-Throl (peptide)", "pIC50": 8.44}
